# Test system: MDA-MB-435
# test.method.notes: Growth inhibition of human MDA-MB-435 cells after 48 hrs by SRB assay
# Format: functional
# condition.description: MDA-MB-435, 48 h
Measured GI50 accompanies every entry in the list below.
# unit: µM | format: bare number

Solved entries:
smiles | experimental.system | unit.name | GI50
COc1ccc(-c2nc3ccccn3c2/C=C/C(=O)c2cc(OC)c(OC)c(OC)c2)cc1OC | MDA-MB-435 | µM | 1.78
COc1ccc(C(=O)/C=C/c2c(C(F)(F)F)nc3ccccn23)cc1OC | MDA-MB-435 | µM | 2.04
COc1ccc(-c2nc3ncccn3c2/C=C/C(=O)c2cc(OC)c(OC)c(OC)c2)cc1 | MDA-MB-435 | µM | 2.28
COc1cc(C(=O)/C=C/c2c(-c3ccc(F)cc3)nc3ncccn23)cc(OC)c1OC | MDA-MB-435 | µM | 2.36
COc1cc(C(=O)/C=C/c2c(C(F)(F)F)nc3ccccn23)cc(OC)c1OC | MDA-MB-435 | µM | 2.26

Form: item `COc1ccc(-c2nc3ccccn3c2/C=C/C(=O)c2cc(OC)c(OC)c(OC)c2)cc1` ; test system MDA-MB-435; GI50: 5.76

Form: item `COc1cc(C(=O)/C=C/c2c(-c3cccs3)nc3ccccn23)cc(OC)c1OC` ; test system MDA-MB-435; GI50: 2.49

---

# test.method.notes: Growth inhibition of human NCI-ADR-RES cells after 48 hrs by SRB assay
# Assay type: functional
measured.attribute: GI50 (nM)
# unit: nM | format: bare number

Solved entries:
smiles | unit.name | GI50
COc1ccc(-c2nc3ccccn3c2/C=C/C(=O)c2cc(OC)c(OC)c(OC)c2)cc1 | nM | 3360
COc1cc(C(=O)/C=C/c2c(C(F)(F)F)nc3ccccn23)cc(OC)c1OC | nM | 1410
COc1ccc(-c2nc3ncccn3c2/C=C/C(=O)c2cc(OC)c(OC)c(OC)c2)cc1 | nM | 1560
COc1cc(C(=O)/C=C/c2c(-c3cccs3)nc3ccccn23)cc(OC)c1OC | nM | 1890
COc1ccc(-c2nc3ccccn3c2/C=C/C(=O)c2cc(OC)c(OC)c(OC)c2)cc1OC | nM | 2180

The compound identified as `COc1cc(C(=O)/C=C/c2c(-c3ccc(F)cc3)nc3ncccn23)cc(OC)c1OC` registered its GI50 at 1580

The compound identified as `COc1ccc(C(=O)/C=C/c2c(C(F)(F)F)nc3ccccn23)cc1OC` registered its GI50 at 1570

---

# System: SK-MEL-2
# test.method.notes: Growth inhibition of human SK-MEL-2 cells after 48 hrs by SRB assay
# Format: functional
# condition.description: SK-MEL-2, 48 h
measured.attribute: GI50 (µM)
# unit: µM | format: bare number

Solved entries:
smiles | measured.attribute | recorded.result
COc1ccc(-c2nc3ncccn3c2/C=C/C(=O)c2cc(OC)c(OC)c(OC)c2)cc1 | GI50 | 1.87
COc1ccc(C(=O)/C=C/c2c(C(F)(F)F)nc3ccccn23)cc1OC | GI50 | 1.72
COc1cc(C(=O)/C=C/c2c(-c3cccs3)nc3ccccn23)cc(OC)c1OC | GI50 | 2.27
COc1cc(C(=O)/C=C/c2c(C(F)(F)F)nc3ccccn23)cc(OC)c1OC | GI50 | 2.43
COc1ccc(-c2nc3ccccn3c2/C=C/C(=O)c2cc(OC)c(OC)c(OC)c2)cc1OC | GI50 | 2.37

The compound identified as `COc1ccc(-c2nc3ccccn3c2/C=C/C(=O)c2cc(OC)c(OC)c(OC)c2)cc1` registered its GI50 at 4.95

The compound identified as `COc1cc(C(=O)/C=C/c2c(-c3ccc(F)cc3)nc3ncccn23)cc(OC)c1OC` registered its GI50 at 2.38
